Kindly state Ki for each of the entries shown.
- assay-system: isolated recombinant JAK2 kinase domain (Homo sapiens (Human), UniProt O60674)
- Sequence (O60674 849-1124): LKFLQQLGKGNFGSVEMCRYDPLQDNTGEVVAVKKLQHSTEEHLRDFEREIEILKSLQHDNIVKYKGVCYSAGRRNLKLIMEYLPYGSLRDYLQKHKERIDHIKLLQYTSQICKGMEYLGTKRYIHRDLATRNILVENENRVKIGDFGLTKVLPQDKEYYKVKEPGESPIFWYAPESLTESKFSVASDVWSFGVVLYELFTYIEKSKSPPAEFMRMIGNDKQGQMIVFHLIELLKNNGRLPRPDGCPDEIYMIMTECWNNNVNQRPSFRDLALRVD
- protocol-text: JAK2 enzyme assay (Caliper LabChip, Ki)
- Type: biochemical
- measurement-parameters: isolated recombinant JAK2 kinase domain, 0.2 nM enzyme, ATP 25 μM
Write it as a number; the unit nM goes unstated.

Give the measured Ki of CC(C)(C#N)CNC1CCN(C(=O)Cn2cc(Nc3nc4c(N5CC6CCC(C5)N6C(=O)N5CC(C(F)(F)F)C5)cccn4n3)cn2)CC1 [Example 131] . 0.7

Give the measured Ki of CN1CCN(C(=O)Cn2cc(Nc3nc4c(N5CC6CCC(C5)N6C(=O)c5cnc(CC(F)(F)F)s5)cccn4n3)cn2)CC1 [Example 196] . 1.1

Give the measured Ki of CCN1CCN(C(=O)Cn2cc(Nc3nc4c(N5CC6CCC(C5)N6C(=O)N5CC(C(F)(F)F)C5)cccn4n3)cn2)CC1 [Example 59] . 0.5

Give the measured Ki of CN1CCN(C(=O)Cn2cc(Nc3nc4c(N5CC6CCC(C5)N6C(=O)CC5CSCCS5)cccn4n3)cn2)CC1 (stereo not drawn) [Example 9] . 0.9

Give the measured Ki of CN(C)C(=O)CN1CCN(CC2CCN(C(=O)Cn3cc(Nc4nc5c(N6CC7CCC(C6)N7C(=O)N6CC(C(F)(F)F)C6)cccn5n4)cn3)CC2)CC1 [Example 81] . 0.8

Give the measured Ki of COC1(C(F)(F)F)CN(C(=O)N2C3CCC2CN(c2cccn4nc(Nc5cnn(CC(=O)N6CCN(C)CC6)c5)nc24)C3)C1 [Example 146] . 6.1

====

- assay-system: isolated recombinant JAK2 kinase domain (Homo sapiens (Human), UniProt O60674)
- protocol-text: JAK2 enzyme assay (Caliper LabChip, Ki)
- Format: biochemical
- measurement-parameters: isolated recombinant JAK2 kinase domain, 0.2 nM enzyme, ATP 25 μM
pKi: −log10 of the molar value.
pKi vs 9: at or above is TRUE, below is FALSE.

Please indicate if the recorded pKi for `CN1CCN(C(=O)Cn2cc(Nc3nc4c(N5CC6CC(C5)N6Cc5ccc(Cl)cc5)cccn4n3)cn2)CC1` meets or exceeds 9. FALSE

Please indicate if the recorded pKi for `CN1CCN(C(=O)Cn2cc(Nc3nc4c(N5CC6CCC(C5)N6Cc5ccccc5C#N)cccn4n3)cn2)CC1` meets or exceeds 9. FALSE

Please indicate if the recorded pKi for `CN1CCN(C(=O)Cn2cc(Nc3nc4c(N5CC6CCC(C5)N6S(=O)(=O)C5CC5)cccn4n3)cn2)CC1` meets or exceeds 9. FALSE

Please indicate if the recorded pKi for `CN1CCN(C(=O)Cn2cc(Nc3nc4c(N5CC6CCC(C5)N6C(=O)N5CCC(F)(F)CC5)cccn4n3)cn2)CC1` meets or exceeds 9. TRUE

Please indicate if the recorded pKi for CN1CCN(C(=O)Cn2cc(Nc3nc4c(N5CC6CCC(C5)N6C(=O)C5C6CC(F)(F)CC65)cccn4n3)cn2)CC1 (stereo not shown) meets or exceeds 9. FALSE

====

Kindly state Ki for each of the entries shown.
- assay-system: isolated recombinant JAK1 kinase domain (Homo sapiens (Human), UniProt P23458)
- Sequence (P23458 875-1153): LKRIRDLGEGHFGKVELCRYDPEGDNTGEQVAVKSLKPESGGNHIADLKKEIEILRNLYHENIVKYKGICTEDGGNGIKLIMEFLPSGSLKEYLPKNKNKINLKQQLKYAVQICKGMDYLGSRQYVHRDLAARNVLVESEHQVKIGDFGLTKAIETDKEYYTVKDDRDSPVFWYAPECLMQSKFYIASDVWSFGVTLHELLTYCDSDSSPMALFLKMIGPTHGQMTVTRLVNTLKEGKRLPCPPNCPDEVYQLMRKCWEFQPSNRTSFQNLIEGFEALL
- protocol-text: JAK1 enzyme assay (Caliper LabChip, Ki)
- Type: biochemical
- measurement-parameters: isolated recombinant JAK1 kinase domain, 1.5 nM enzyme, ATP 25 μM
Write it as a number; the unit nM goes unstated.

Find the measured Ki: item `CN1CCN(C(=O)Cn2cc(Nc3nc4c(N5CC6CCC(C5)N6C(=O)c5cncs5)cccn4n3)cn2)CC1` , target or system isolated recombinant JAK1 kinase domain (Homo sapiens (Human), UniProt P23458). 0.8

Find the measured Ki: item `CN1CCN(C(=O)Cn2cc(Nc3nc4c(N5CC6CCC(C5)N6C(=O)c5cccc(Cl)c5)cccn4n3)cn2)CC1` , target or system isolated recombinant JAK1 kinase domain (Homo sapiens (Human), UniProt P23458). 0.8

Find the measured Ki: item `CC(F)(F)CNC1CCN(C(=O)Cn2cc(Nc3nc4c(N5CC6CCC(C5)N6C(=O)N5CC(C(F)(F)F)C5)cccn4n3)cn2)CC1` , target or system isolated recombinant JAK1 kinase domain (Homo sapiens (Human), UniProt P23458). 0.6

Find the measured Ki: item `CN1CCN(C(=O)Cn2cc(Nc3nc4c(N5CC6CCC(C5)N6C(=O)c5ccccc5)cccn4n3)cn2)CC1` , target or system isolated recombinant JAK1 kinase domain (Homo sapiens (Human), UniProt P23458). 4.2

Find the measured Ki: item `CN1CCN(C(=O)Cn2cc(Nc3nc4c(N5CC6CCCC(C5)N6C(=O)C5CSC5)cccn4n3)cn2)CC1` , target or system isolated recombinant JAK1 kinase domain (Homo sapiens (Human), UniProt P23458). 0.4

Find the measured Ki: item `CN1CCN(C(=O)Cn2cc(Nc3nc4c(N5CC6CCC(C5)N6S(=O)(=O)C5CC5)cccn4n3)cn2)CC1` , target or system isolated recombinant JAK1 kinase domain (Homo sapiens (Human), UniProt P23458). 2.1

Find the measured Ki: item `CN1CCN(C(=O)Cn2cc(Nc3nc4c(N5CC6CCC(C5)N6S(=O)(=O)c5cccc(C(F)(F)F)c5)cccn4n3)cn2)CC1` , target or system isolated recombinant JAK1 kinase domain (Homo sapiens (Human), UniProt P23458). 0.8

====

- assay-system: isolated recombinant JAK2 kinase domain (Homo sapiens (Human))
- protocol-text: JAK2 enzyme assay (Caliper LabChip, Ki)
- Assay type: biochemical
quantity-measured: pKi
// field semantics: pKi = negative decimal log of concentration (mol/L)

Give the measured pKi of CN1CCN(C(=O)Cn2cc(Nc3nc4c(C5=CC6CCC(C5)N6C(=O)OCC(F)(F)F)cccn4n3)cn2)CC1 (stereo not shown) . 9.15

====

- assay-system: isolated recombinant JAK2 kinase domain (Homo sapiens (Human))
- protocol-text: JAK2 enzyme assay (Caliper LabChip, Ki)
- Assay type: biochemical
- measurement-parameters: isolated recombinant JAK2 kinase domain, 0.2 nM enzyme, ATP 25 μM
Kindly state pKi for each of the entries shown.
// field semantics: pKi = negative decimal log of concentration (mol/L)

Give the measured pKi of CN1CCN(C(=O)Cn2cc(Nc3nc4c(N5CC6CCC(C5)N6C(=O)c5ccccc5C#N)cccn4n3)cn2)CC1 [Example 140] . 9.10

Give the measured pKi of CC(C(=O)N1CCN(C)CC1)n1cc(Nc2nc3c(N4CC5CCC(C4)N5C(=O)C4CC(C(F)(F)F)C4)cccn3n2)cn1 (stereo not drawn) [Example 125] . 9.40

Give the measured pKi of CN1CCN(C(=O)Cn2cc(Nc3nc4c(N5CC6CCC(C5)N6C(=O)CC5CC(F)(F)C5)cccn4n3)cn2)CC1 [Example 8] . 9.15

Give the measured pKi of CN1CCN(C(=O)Cn2cc(Nc3nc4c(N5CC6CCC(C5)N6S(=O)(=O)Cc5ccccc5F)cccn4n3)cn2)CC1 [Example 158] . 8.55

Give the measured pKi of CSC1CCN(C(=O)N2C3CCC2CN(c2cccn4nc(Nc5cnn(CC(=O)N6CCN(C)CC6)c5)nc24)C3)C1 (stereo not drawn) [Example 172] . 9.05

Give the measured pKi of CN1CCN(C(=O)Cn2cc(Nc3nc4c(N5CC6CCC(C5)N6C(=O)COC(F)(F)F)cccn4n3)cn2)CC1 [Example 54] . 8.31

Give the measured pKi of CN1CCN(C(=O)Cn2cc(Nc3nc4c(N5CC6CCC(C5)N6C(=O)NCC(F)(F)F)cccn4n3)cn2)CC1 [Example 110] . 8.47

Give the measured pKi of Cc1cc(S(=O)(=O)N2C3CCC2CN(c2cccn4nc(Nc5cnn(CC(=O)N6CCN(C)CC6)c5)nc24)C3)sn1 [Example 139] . 9.22

Give the measured pKi of CN1CCN(C(=O)Cn2cc(Nc3nc4c(N5CC6CCC(C5)N6c5ccc(Cl)cc5)cccn4n3)cn2)CC1 [Example 113] . 9.52

Give the measured pKi of CN1CCN(C(=O)Cn2cc(Nc3nc4c(N5CC6CCCC(C5)N6C(=O)[C@H]5C[C@H](C(F)(F)F)C5)cccn4n3)cn2)CC1 [Example 40] . 9.22

Give the measured pKi of CN1CCN(C(=O)Cn2cc(Nc3nc4c(N5C[C@H]6CC[C@@H](C5)[C@H]6N(C)CCC(F)(F)F)cccn4n3)cn2)CC1 [Example 127] . 7.94

Give the measured pKi of CN1CCN(C(=O)Cn2cc(Nc3nc4c(N5CC6CCC(C5)N6C(=O)Cc5ccccc5F)cccn4n3)cn2)CC1 [Example 64] . 8.14

Give the measured pKi of CN1CCN(C(=O)Cn2cc(Nc3nc4c(N5CC6CCC(C5)N6S(=O)(=O)c5ccccc5Cl)cccn4n3)cn2)CC1 [Example 111] . 9.30

Give the measured pKi of CN1CCN(C(=O)Cn2cc(Nc3nc4c(N5CC6CCC(C5)N6C(=O)C5CSC5)cccn4n3)cn2)CC1 [Example 3] . 9.22

Give the measured pKi of CN1CCN(C(=O)Cn2cc(Nc3nc4c(N5CC6CCC(C5)N6C(=O)[C@H]5C[C@@H](C(F)(F)F)C5)cccn4n3)cn2)CC1 [Example 15] . 8.43

Give the measured pKi of CN1CCN(C(=O)Cn2cc(Nc3nc4c(N5CC6CCC(C5)N6C(=O)N5CC(F)(F)C5)cccn4n3)cn2)CC1 [Example 173] . 9.30

Give the measured pKi of CN1CCN(C(=O)Cn2cc(Nc3nc4c(N5CC6CCC(C5)C6=CC#N)cccn4n3)cn2)CC1 [Example 118] . 8.82

Give the measured pKi of CN1CCN(C(=O)Cn2cc(Nc3nc4c(N5CC6CCC(C5)N6S(=O)(=O)c5ccc(Cl)cc5F)cccn4n3)cn2)CC1 [Example 136] . 8.21

Give the measured pKi of CN1CCN(C(=O)Cn2cc(Nc3nc4c(N5CC6CCC(C5)N6CC(F)(F)F)cccn4n3)cn2)CC1 [Example 98] . 8.39

Give the measured pKi of CN1CCN(C(=O)Cn2cc(Nc3nc4c(N5CC6CCC(C5)N6S(=O)(=O)c5ccccc5C#N)cccn4n3)cn2)CC1 [Example 147] . 9.52

Give the measured pKi of O=C(Cn1cc(Nc2nc3c(N4CC5CCC(C4)N5C(=O)N4CC(C(F)(F)F)C4)cccn3n2)cn1)N1CCC(N2CCOCC2)CC1 [Example 44] . 9.22

Give the measured pKi of CN1CCN(C(=O)Cn2cc(Nc3nc4c(N5CC6CCC(C5)N6C(=O)C5CC5(F)F)cccn4n3)cn2)CC1 (stereo not drawn) [Example 37] . 8.74

Give the measured pKi of CN1CCN(C(=O)Cn2cc(Nc3nc4c(N5CC6CCC(C5)N6C(=O)[C@H]5C[C@H](C(F)(F)F)C5)cccn4n3)cn2)CC1 [Example 6] . 9.22

Give the measured pKi of CN1CCN(C(=O)Cn2cc(Nc3nc4c(N5CC6CCC(C5)N6S(=O)(=O)Cc5cccc(F)c5)cccn4n3)cn2)CC1 [Example 159] . 8.54

Give the measured pKi of CSc1ccc(C(=O)N2C3CCC2CN(c2cccn4nc(Nc5cnn(CC(=O)N6CCN(C)CC6)c5)nc24)C3)cc1 [Example 99] . 8.27

Give the measured pKi of CC(CC(=O)N1C2CCC1CN(c1cccn3nc(Nc4cnn(CC(=O)N5CCN(C)CC5)c4)nc13)C2)C(F)(F)F (stereo not drawn) [Example 67] . 8.85

Give the measured pKi of CN1CCN(C(=O)Cn2cc(Nc3nc4c(N5CC6CCC(C5)N6C(=O)c5ccc(Cl)cc5)cccn4n3)cn2)CC1 [Example 89] . 7.87
